# credit: the supplement of paper PMC13380429

tested on: Caco-2; experiment: cell viability relative to DMSO; higher = less toxic; settings: 72 h; 1000 nM
experimental endpoint: cell viability (%)
Write the number in % without appending the unit.

C[C@H]1COC2=C1C(=O)C(=O)c1c2ccc2c1CCCC2(C)C; 102
COc1cc2c(Nc3ccc(Cl)c(Cl)c3F)ncnc2cc1OC[C@@H]1C[C@@H]2CN(C)C[C@@H]2C1; 72.1
O=C1c2ccc(Nc3ccc(F)cc3F)cc2CCc2ccc(OC[C@H](O)CO)cc21 [skepinone-L]; 91.7

Field: next compound
// assay Caco-2, entry "COC(=O)N[C@@H](C)CNc1nccc(-c2cn(C(C)C)nc2-c2cc(Cl)cc(NS(C)(=O)=O)c2F)n1" , cell viability value = 88.4
